Assay: Maximum concentration in heart of rats after intravenous administration
Assay type: ADME, organism-based
Parameters: route intravenous
Conditions: rat
Examples of molecules with documented Cmax follow.

Known Cmax results, listed for orientation:
{"SMILES_NOTATION": "Cl.O=C(CN1CCC(N2CCCC2)CC1)Nc1ccc2nc(O)c3ccccc3c2n1", "Cmax": "38400 ng/g"}
{"SMILES_NOTATION": "CN1CCN(c2ccc3nc(O)c4ccccc4c3n2)CC1.CS(=O)(=O)O", "Cmax": "2980 ng/g"}
{"SMILES_NOTATION": "CS(=O)(=O)O.Oc1nc2ccc(N3CCN(CC4CC4)CC3)nc2c2ccccc12", "Cmax": "7480 ng/g"}

Looking for the measured Cmax of `CS(=O)(=O)O.Oc1nc2ccc(N3CCNCC3)nc2c2ccccc12` , can you help?
20300 ng/g

---

Experiment: Maximum concentration in plasma of rats after intravenous administration
Assay type: ADME, organism-based
Parameters: route intravenous
Conditions: rat
The following molecules are shown together with reported Cmax values.
Hi! Could you send only the number? It should be in ng/mL, unit omitted.

These recorded examples may help you get a feel for the data.
{"SMILES_NOTATION": "C[N+]1([O-])CCN(c2ccc3nc(O)c4ccccc4c3n2)CC1", "OUTCOME_MEASURE": "Cmax", "RESULT": 10}
{"SMILES_NOTATION": "Cl.O=C(CN1CCC(N2CCCC2)CC1)Nc1ccc2nc(O)c3ccccc3c2n1", "OUTCOME_MEASURE": "Cmax", "RESULT": 4790}
{"SMILES_NOTATION": "CS(=O)(=O)O.Oc1nc2ccc(N3CCN(CC4CC4)CC3)nc2c2ccccc12", "OUTCOME_MEASURE": "Cmax", "RESULT": 1950}

Endpoint output: Cmax of `CS(=O)(=O)O.Oc1nc2ccc(N3CCNCC3)nc2c2ccccc12` . Value?
3790

Request the reported Cmax associated with `CN1CCN(c2ccc3nc(O)c4ccccc4c3n2)CC1.CS(=O)(=O)O`
456
